Test: Half life in human liver microsomes
Type: ADME
quantityKind: half-life (min)
Value expressed in min; do not type the unit.

Input line: Value lookup for half-life; key = "Cc1nnc(S(=O)(=O)CC(=O)C23CC4CC(CC(C4)C2)C3)s1"
Output line: 30

====

Target: UniProtKB P28845
Sequence (P28845 whole entry, looked up): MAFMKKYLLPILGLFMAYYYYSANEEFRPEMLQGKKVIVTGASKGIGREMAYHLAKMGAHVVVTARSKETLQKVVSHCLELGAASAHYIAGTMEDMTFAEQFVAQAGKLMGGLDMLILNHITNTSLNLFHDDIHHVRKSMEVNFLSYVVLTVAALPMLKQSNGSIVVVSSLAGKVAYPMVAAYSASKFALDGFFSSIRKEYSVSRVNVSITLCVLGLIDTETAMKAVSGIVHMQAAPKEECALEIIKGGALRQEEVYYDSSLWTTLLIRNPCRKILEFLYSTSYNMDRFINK
Assay: Inhibition of human 11beta-HSD1 expressed in HEK293 cells using [3H]-cortisone as substrate at 1 uM by scintillation proximity assay
Assay type: cell-based
Decision: inhibition compared against 40%; not below it gives Met, below it gives Not met.

Input line: Hello, I need to know if Cc1nnc([S+]([O-])CC(=O)c2ccc3c(c2)OCCO3)s1 (stereo not drawn) has measured inhibition not below 40%. Thanks!
Output line: Met

Input line: Another compound: "Cc1nnc(SCC(=O)c2ccc(C(F)(F)F)cc2)s1"
Output line: Met

Input line: Another compound: "Cc1nnc(SCC(=O)c2ccc(C#N)cc2)s1"
Output line: Met

Input line: Another compound: "Cc1nnc(SCC(=O)c2ccc(O)cc2O)s1"
Output line: Not met

Input line: Another compound: "Nc1nnc(SCC(=O)c2ccc3c(c2)OCCO3)s1"
Output line: Met

Input line: Another compound: "CSc1nnc(SCC(=O)c2ccc3c(c2)OCCO3)s1"
Output line: Not met
